System: Jurkat
Assay: Cytotoxicity against human Jurkat cells assessed as growth inhibition at 100 uM after 48 hrs by MTT assay
Format: functional
Assign 1.0 whenever inhibition at 100 µM does not fall below 40%; assign 0.0 whenever it does.

[
  {
    "MOLECULE": "CCOP(=O)(OCC)C(Nc1ccc(Oc2ccc(NC(c3ccccc3)P(=O)(OCC)OCC)cc2)cc1)c1ccccc1 (configuration not stated)",
    "LABEL": 0.0
  },
  {
    "MOLECULE": "CCOP(=O)(OCC)C(Nc1ccc(Cc2ccc(NC(c3ccc([N+](=O)[O-])cc3)P(=O)(OCC)OCC)cc2)cc1)c1ccc([N+](=O)[O-])cc1 (configuration not stated)",
    "LABEL": 0.0
  },
  {
    "MOLECULE": "CCOP(=O)(OCC)C(Nc1ccc(Cc2ccc(NC(c3cc(OC)c(OC)c(OC)c3)P(=O)(OCC)OCC)cc2)cc1)c1cc(OC)c(OC)c(OC)c1 (configuration not stated)",
    "LABEL": 0.0
  },
  {
    "MOLECULE": "CCOP(=O)(OCC)C(NCCc1c[nH]c2ccccc12)c1ccc(C(NCCc2c[nH]c3ccccc23)P(=O)(OCC)OCC)cc1 (configuration not stated)",
    "LABEL": 1.0
  },
  {
    "MOLECULE": "CCOP(=O)(OCC)C(Nc1ccc(C(=O)c2ccc(NC(c3ccccc3)P(=O)(OCC)OCC)cc2)cc1)c1ccccc1 (configuration not stated)",
    "LABEL": 0.0
  },
  {
    "MOLECULE": "CCOP(=O)(OCC)C(Nc1ccc(S(=O)(=O)c2ccc(NC(c3ccc(O)c(OC)c3)P(=O)(OCC)OCC)cc2)cc1)c1ccc(O)c(OC)c1 (configuration not stated)",
    "LABEL": 0.0
  },
  {
    "MOLECULE": "COc1cccc2c1C(=O)c1c(O)c3c(c(O)c1C2=O)C[C@@](O)(C(=O)CO)C[C@@H]3O[C@H]1C[C@H](N)[C@H](O)[C@H](C)O1 [DOXORUBICIN]",
    "LABEL": 1.0
  },
  {
    "MOLECULE": "CCOP(=O)(OCC)C(Nc1ccccc1)c1ccc(C(Nc2ccccc2)P(=O)(OCC)OCC)cc1 (configuration not stated)",
    "LABEL": 0.0
  },
  {
    "MOLECULE": "CCOP(=O)(OCC)C(Nc1nc2[nH]cnc2c(=O)[nH]1)c1ccc(C(Nc2nc3[nH]cnc3c(=O)[nH]2)P(=O)(OCC)OCC)cc1 (configuration not stated)",
    "LABEL": 0.0
  },
  {
    "MOLECULE": "CCOP(=O)(OCC)C(Nc1ccc(Cc2ccc(NC(c3ccc(N(C)C)cc3)P(=O)(OCC)OCC)cc2)cc1)c1ccc(N(C)C)cc1 (configuration not stated)",
    "LABEL": 0.0
  },
  {
    "MOLECULE": "CCOP(=O)(OCC)C(Nc1ccc(Cc2ccc(NC(c3ccccc3)P(=O)(OCC)OCC)cc2)cc1)c1ccccc1 (configuration not stated)",
    "LABEL": 0.0
  }
]

====

Test system: MCF7
Test: Cytotoxicity against human MCF7 cells after 72 hrs by MTT assay
Assay type: functional, cell-based
Conditions: MCF7, 72 h
ASSAY_METRIC: IC50 (µM)

[
  {
    "COMPOUND": "CCOP(=O)(OCC)C(NCCc1c[nH]c2ccccc12)c1ccc(C(NCCc2c[nH]c3ccccc23)P(=O)(OCC)OCC)cc1 (stereo unspecified)",
    "ASSAY_METRIC": "IC50",
    "REPORTED_VALUE": 67.5
  }
]
